The values you see were collected from patent US20220195023A1.

Overview of reported pKd across a group of binders:
molecular target: NANPNVDP (Plasmodium falciparum); assay: BLI, target on sensor
pKd: −log10 of the molar value.

[
  {
    "binder": "AB-007061 (antibody, V domains shown) VH: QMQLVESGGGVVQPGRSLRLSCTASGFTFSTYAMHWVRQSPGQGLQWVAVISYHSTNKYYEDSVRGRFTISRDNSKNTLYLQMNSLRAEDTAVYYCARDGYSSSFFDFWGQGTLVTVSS VL: DIQMTQSPSTLSASVGDRVAITCRASQSIDRWLAWYQQQPGKAPKLLMSGASVLESGVPSRFSGSGSGTEFTLTISSLQPDDFATYYCQHYNSYFVTFGQGTKVEIK",
    "pKd": 7.91
  },
  {
    "binder": "AB-007071 (antibody, V domains shown) VH: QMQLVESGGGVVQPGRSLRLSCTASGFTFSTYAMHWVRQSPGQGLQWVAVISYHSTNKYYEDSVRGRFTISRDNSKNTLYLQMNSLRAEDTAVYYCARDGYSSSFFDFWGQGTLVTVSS VL: DIQMTQSPSTLSASVGDRVAITCRASQSISRWLAWYQQQPGKAPKLLMSGASSLESGVPSRFSGSGSGTEFTLTISSLQPDDFATYYCQHYNSYFVTFGQGTKVEIK",
    "pKd": 7.89
  }
]
